The entries below are paired with their reported viability, T/C.
test system: 743489-274-T-PDC complex spheroid growth; assay: Anticancer human tumor 743489-274-T-PDC patient-derived renal cell carcinoma cell line growth inhibition [AhR]; settings: second compound 3.16 µM; first compound 0.3 µM; hits give low values;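 further: spheroids exposed to agents for 7 days before readout; 100% = DMSO vehicle control wells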
Reply numerically in %, unit not repeated.

The cases that follow already have their viability, T/C on record.
>>> test_result("CCc1c2c(nc3ccc(O)cc13)-c1cc3c(c(=O)n1C2)COC(=O)[C@]3(O)CC + CC(CO)NC(=O)c1cc(-c2ccc(Cl)cc2)nn(-c2cnn(C)c2)c1=O")
59.3
>>> test_result("Nc1ncn(C2CC(O)C(CO)S2)c(=O)n1 (centres undefined) + Cc1cncc(-c2nc(NCCc3c[nH]c4ccccc34)c3ncn(C(C)C)c3n2)c1")
96.2
>>> test_result("CCc1c2c(nc3ccc(O)cc13)-c1cc3c(c(=O)n1C2)COC(=O)[C@]3(O)CC + Cc1ccccc1N=Nc1ccc(NC(=O)c2ccnn2C)c(C)c1")
50.2

IN: Recorded viability, T/C for Nc1ncn(C2CC(O)C(CO)S2)c(=O)n1 (centres undefined) + Cc1ccccc1N=Nc1ccc(NC(=O)c2ccnn2C)c(C)c1 , please?
OUT: 79.3

Where these numbers come from: PubChem BioAssay AID1919002
